target: 5-HT6 receptors (Homo sapiens); assay: Adenylyl cyclase activity (cAMP accumulation) in HeLa cells transfected with human 5-HT6 receptor
Sequence (P50406 whole entry): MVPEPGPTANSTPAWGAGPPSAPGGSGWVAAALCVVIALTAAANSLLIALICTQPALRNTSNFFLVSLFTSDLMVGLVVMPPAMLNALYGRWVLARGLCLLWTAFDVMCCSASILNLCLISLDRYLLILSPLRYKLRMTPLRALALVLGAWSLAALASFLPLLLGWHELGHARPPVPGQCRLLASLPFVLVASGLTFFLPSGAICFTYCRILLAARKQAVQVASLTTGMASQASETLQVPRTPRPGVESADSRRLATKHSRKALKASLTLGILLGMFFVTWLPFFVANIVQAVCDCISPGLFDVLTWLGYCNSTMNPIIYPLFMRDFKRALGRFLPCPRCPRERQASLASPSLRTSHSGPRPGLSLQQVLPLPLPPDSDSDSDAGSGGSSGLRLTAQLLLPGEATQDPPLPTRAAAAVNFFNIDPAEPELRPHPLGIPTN
Measured Quantity: IC50 (µM)
Express your answer in µM, writing the number without its unit.

[Q] // IC50 lookup, key: CC1(c2ccc(O)cc2)C(=O)c2c(N3CCNCC3)cc(Cl)cc2N(Cc2ccccc2)C1=O (racemic)
[A] 0.0287

###

target: hD2L (Homo sapiens, UniProt P14416); construct: purchased BioSignal Packard Inc., Montreal, Canada; assay: Radioligand binding, dopamine D2 ([3H]spiperone); details: Table 4; [3H]spiperone 1 nM; read-out: Binding affinity, IC50 (nM) D2
Sequence (P14416 whole entry): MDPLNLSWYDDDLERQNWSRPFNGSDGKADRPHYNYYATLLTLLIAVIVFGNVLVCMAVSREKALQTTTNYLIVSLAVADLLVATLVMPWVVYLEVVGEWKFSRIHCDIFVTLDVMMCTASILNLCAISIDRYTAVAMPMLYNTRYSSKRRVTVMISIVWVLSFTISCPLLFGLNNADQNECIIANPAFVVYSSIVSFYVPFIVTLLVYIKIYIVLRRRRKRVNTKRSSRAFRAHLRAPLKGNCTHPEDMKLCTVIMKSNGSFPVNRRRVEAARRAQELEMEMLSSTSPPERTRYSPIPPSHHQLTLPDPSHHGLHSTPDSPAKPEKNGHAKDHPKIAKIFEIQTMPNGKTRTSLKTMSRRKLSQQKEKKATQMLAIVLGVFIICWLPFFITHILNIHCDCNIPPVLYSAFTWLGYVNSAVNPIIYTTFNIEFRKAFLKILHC
We begin with a simple list: items and their reported IC50.
Express your answer in nM, writing the number without its unit.

For orientation, consider the following solved cases.
CC1(c2ccc(I)cc2)C(=O)c2c(N3CCNCC3)cc(Cl)cc2N(Cc2ccccc2)C1=O (stereo not shown) | 1640
CN1CCN(c2cc(Cl)cc3c2C(=O)C(C)(c2ccc(O)cc2)C(=O)N3Cc2cccc([N+](=O)[O-])c2)CC1 (stereo not shown) | 7290
CC1(c2ccc(O)cc2)C(=O)c2c(N3CCNCC3)cc(Cl)cc2N(Cc2ccccc2Br)C1=O (stereo not shown) | 7990
COc1ccc(C2(C)C(=O)c3c(N4CCNCC4)cc(Cl)cc3N(CC3CCCCC3)C2=O)cc1 (stereo not shown) | 7510
CC1(c2ccc(N)cc2)C(=O)c2c(N3CCNCC3)cc(Cl)cc2N(Cc2ccccc2)C1=O (stereo not shown) | 6740

[Q] // IC50 lookup, key: CC1(c2ccc(O)cc2)C(=O)c2c(N3CCNCC3)cc(Cl)cc2N(Cc2ccc(-c3ccccc3)cc2)C1=O (stereo not shown)
[A] 6850

[Q] // IC50 lookup, key: CC1(c2ccc(Br)cc2)C(=O)c2c(N3CCNCC3)cc(Cl)cc2N(Cc2ccccc2)C1=O (stereo not shown)
[A] 8250

###

We begin with a simple list: items and their reported IC50.
biological target: Human serotonin 5-HT6 receptor (Homo sapiens, UniProt P50406); construct: made in house; host or cells: insect Sf21 cells (baculovirus vector BacPAK8); assay: [3H]LSD binding assay on cloned 5-HT6 receptor membranes; details: Table 4; read-out: Binding affinity, IC50 (nM) 5-HT6
Sequence (P50406 whole entry): as the sequence (P50406 whole entry) above
Express your answer in nM, writing the number without its unit.

CC1(c2cccc(O)c2)C(=O)c2c(N3CCNCC3)cc(Cl)cc2N(Cc2ccccc2)C1=O (stereo not drawn) | 20.7
CC1(c2ccc(N)cc2)C(=O)c2c(N3CCNCC3)cc(Cl)cc2N(Cc2ccccc2)C1=O (stereo not drawn) | 17.6
CC1(c2ccc([N+](=O)[O-])cc2)C(=O)c2c(N3CCNCC3)cc(Cl)cc2N(Cc2ccccc2)C1=O (stereo not drawn) | 15.2
COc1ccc(C2(C)C(=O)c3c(N4CCNCC4)cc(Cl)cc3N(CC3CCCCC3)C2=O)cc1 (stereo not drawn) | 16
CC1(c2ccc(O)cc2)C(=O)c2c(N3CCNCC3)cc(Cl)cc2N(Cc2ccc3ccccc3n2)C1=O (stereo not drawn) | 16.4

[Q] // IC50 lookup, key: CCNc1ccc(C2(C)C(=O)c3c(N4CCNCC4)cc(Cl)cc3N(Cc3ccccc3)C2=O)cc1 (stereo not drawn)
[A] 15.5

[Q] // IC50 lookup, key: COc1ccc(CN2C(=O)C(C)(c3ccc(OC)cc3)C(=O)c3c(N4CCNCC4)cc(Cl)cc32)cc1 (stereo not drawn)
[A] 21.3

[Q] // IC50 lookup, key: CC1(c2ccc(O)cc2)C(=O)c2c(N3CCNCC3)cc(Cl)cc2N(Cc2ccccc2Br)C1=O (stereo not drawn)
[A] 15.1

[Q] // IC50 lookup, key: CC1(c2ccc(Cl)cc2)C(=O)c2c(N3CCNCC3)cc(Cl)cc2N(Cc2ccccc2)C1=O (stereo not drawn)
[A] 15.3
